Measured Relative late peak area (centered, scaled, averaged over 5, 10 and 15 min), listed per entry.
Target: T1, IFF05588
T1 chain: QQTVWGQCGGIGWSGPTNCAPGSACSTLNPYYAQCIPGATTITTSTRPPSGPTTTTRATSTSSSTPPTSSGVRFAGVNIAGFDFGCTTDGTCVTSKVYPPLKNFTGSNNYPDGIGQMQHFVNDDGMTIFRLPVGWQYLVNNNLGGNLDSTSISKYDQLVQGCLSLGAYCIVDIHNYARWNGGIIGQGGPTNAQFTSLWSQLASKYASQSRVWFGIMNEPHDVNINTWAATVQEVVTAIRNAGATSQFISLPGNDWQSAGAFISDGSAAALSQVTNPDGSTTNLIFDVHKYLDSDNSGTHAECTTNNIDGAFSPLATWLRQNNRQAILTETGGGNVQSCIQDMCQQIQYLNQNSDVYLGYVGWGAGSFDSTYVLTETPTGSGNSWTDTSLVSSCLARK
Readout: Relative late peak area (centered, scaled, averaged over 5, 10 and 15 min)

| Protein | Recorded Value |
| --- | --- |
| IFF21368 (protein) QLSKPVMNPPVPFSDLDPTLFKYLKSTPHNRDQWGWGWLPARCKAIADQQGLNAYDIDVYNVHYSDCNQAWVMCRHHLSPLSIDTMAENFGRIPVRMRNFVRVQFALPQKDSSFGGATFSDLGDILWYGDVSKTLRFWIHEAGHTIDRNINPGSNDDYSKSSAWLNEYNKDGFICDDYAKNNAAENFAQEVIVALFDKVVPGGLGSVSPNWNSIFHQYATVQSKLGDILIPGGTCNRKFADDTIVCMGPAANCNSKANAKFRLKADKTQDAAIVAASDNPPIEDLFEVEE | -1 |
| IFF21347 (protein) KLDKPVIQPNFPGGGLASLGQGLLDNLKPTQSTSDVWGAGWIPADCKSLVQGAGLSPNDITPFNIHYTDCSQTWTFCRHKDSPLSQTDIIDLFGRVPVRMRDYIRHYVFIPGNKSAGSSGDNTLMVGDVDITVFLHEIGHSLDSHAFDPSYGVPFSTGNVWISNYNQDSAVTDDYAQSSQQENFAQETVVSVYDKNVPGGIGNIQPNWQAIFHQYATLEGYIGDTIIPGGTCVNRLTDSQPVTMSNSAKFRRNLGPKPTVSLSPDVKEIKAIPMADSIKMTSFDEHGKPNGTYVIQL | 1.74 |
| IFF21376 (protein) QTLDKPALTPDLDYLEQGAIDNLAPTQSTNDQWGSGWIPSDCKDIANNEGKNPDDFEIYNVHYDDCDDAWVFCRHKDTPTDLITTIDIFGRLPVAMRSWVRHVLTIPGDNYAYNSNGNIAFFGTTSGIMDVAIHETGHSLDLLGAYGDQLSSSQDWLDNYNQDSNVPDNYAQTNQIENVEQNTVVSVYDKVVPGGFGSAQPNWNNIFHQYATLQGKAGDQIIPGGSCDRHLVNSETVSTSDSAAAAMVDAVDKPVTSFKGNYTKILKTHAKFNTKESCYFGN | -0.99 |
| IFF21344 (protein) KLDKPIIQPNFPGGGLASLGQGLLNNLSPTQSTSDNWGAGWIPADCKSLVQGAGLSPFDVTPFNIHYTDCSQTWTFCRHKDSPLSQTDIIDLFGRVPVRMRDFIRHYVFIPGATSAGSSGDNTLMVGNVDITVFLHEIGHSLDSHAFDPSYGVPFSTSNVWISNYNLDSAVTDSYAQTSQQENFAQETVVSVYDKVVPGGIGTIQPNWQAIFHQYATLQGYIGNTIIPGGTCVNRLTDSQPVTMGNSAKFRRGLGPKPTVSLSPDVKEIKPIPMSDSITMTTFDEFGKANGTYVIHL | 1.36 |
| IFF21356 (protein) GNPDKPEVNPHIPYDRLESDLRNNLHPTQSTWDYWGAGWIPQGCKDLANTYHLNPADFTIFNVHYTDCSASWTFCRHKNAGASEIDMIDIFGRLPVHMRSYIRHLVATPGLNDGAAAWTWSSGDCVVESAPNLATLVHEVSHSLDWHALPQYQQPFSSSSIWQDNYNQDSATPTGYGRTNWMENFAETGMVGVYDKVVPGGIGNIEPNWNAIFHQYATYQGYLGDKIIPGGSCANRFDDTPPVAMSNSAKVKVNSPKPGTRIDFAGTNITQIIPSKEVEGLYIKG | -1.04 |
